From: paper PMC9027111

# maps each entry to its fraction unbound at 6 h, 5 μM
assay: Plasma protein binding by equilibrium dialysis; format: in vitro ADME; conditions: plasma, 37 °C, read-out: Plasma Protein Binding Free %

INSERT INTO results (compound, property_name, result) VALUES
  ('CC12CC34C=C(c5ccc6ccc7cccc8ccc5c6c78)C(=O)C(C)(CCC(=O)Nc5c(O)ccc(C(=O)O)c5O)C3C(CC1C4)O2 (centres unmarked) [1b, 6-pyrenyl PTM, reference compound]', 'fraction unbound at 6 h, 5 μM', 0.001);

Data point: CCCCCCCCCCCCCCCCCCOC(=O)C=CC1=CC23CC4CC(OC4(C)C2)C3C(C)(CCC(=O)Nc2c(O)ccc(C(=O)O)c2O)C1=O (centres unmarked) [A5] ; fraction unbound at 6 h, 5 μM = 0.008

Data point: CC(=O)C1=C(C)OC(Cc2ccc(F)cc2)=C2C(=O)C(C)(CCC(=O)Nc3c(O)ccc(C(=O)O)c3O)C3C4CC5CC3(CC5(C)O4)C12 (centres unmarked) [C6] ; fraction unbound at 6 h, 5 μM = 0.004

Data point: CC12CC34C=C(C#Cc5cccc(F)c5)C(=O)C(C)(CCC(=O)Nc5c(O)ccc(C(=O)O)c5O)C3C(CC1C4)O2 (centres unmarked) [B8] ; fraction unbound at 6 h, 5 μM = 0.006

Data point: CC12CC34C=C(C=CC(=O)N5CCOCC5)C(=O)C(C)(CCC(=O)Nc5c(O)ccc(C(=O)O)c5O)C3C(CC1C4)O2 (centres unmarked) [A10] ; fraction unbound at 6 h, 5 μM = 0.23
